Hello, the source for this data is patent US6737383B1, in case you need it.

Test system: Italian ryegrass
Assay: Test E Italian ryegrass
Type: in vivo, Lolium multiflorum
Conditions: Preemergence, Rate 250 g/ha
ASSAY METRIC: I. Ryegrass plant response rating (0 to 100 scale)
A bare number is all that is needed in reply.

INSERT INTO assay_data (compound, test_value) VALUES
  ('CCc1cccc(C)c1-n1c(=O)on(C(=O)N(c2ccc(F)cc2)C(C)C)c1=O [Compound 201]', 50),
  ('CC(C)N(C(=O)n1oc(=O)n(CC(C)(C)C)c1=O)c1ccc(F)cc1F [Compound 277]', 75),
  ('CC(C)N(C(=O)n1oc(=O)n(C(C)C)c1=O)c1ccc(F)cc1 [Compound 131]', 100);

Quick one: I. Ryegrass plant response rating (0 to 100 scale) for Cc1nc(C)c(Cn2c(=O)on(C(=O)N(c3ccc(F)cc3)C(C)C)c2=O)s1 [Compound 232] ?
40
